The values you see were collected from patent US20250326753A1.

Below: a set of entries, each annotated with reported IC50.
- test system: CXCR4 (Homo sapiens)
- Sequence (P61073 whole entry): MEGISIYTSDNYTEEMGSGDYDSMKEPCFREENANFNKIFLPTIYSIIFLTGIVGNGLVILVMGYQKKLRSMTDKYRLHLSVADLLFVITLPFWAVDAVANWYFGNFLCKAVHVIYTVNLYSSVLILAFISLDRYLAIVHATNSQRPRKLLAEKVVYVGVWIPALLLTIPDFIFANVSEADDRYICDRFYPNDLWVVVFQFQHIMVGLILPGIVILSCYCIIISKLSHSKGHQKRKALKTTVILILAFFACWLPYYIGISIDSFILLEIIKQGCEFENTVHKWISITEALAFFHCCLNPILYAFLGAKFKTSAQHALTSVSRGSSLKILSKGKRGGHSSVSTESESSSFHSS
- experiment description: Chemokine (CXCL12-AF647) binding inhibition assay, Jurkat cells expressing CXCR4
- experimental setup: CXCL12-AF647 25 ng/ml, read-out: IC50 CXCL-12 binding Jurkat
result type: IC50

Cc1cccnc1[C@H]1CCC[C@@H](c2ncccc2C)N1CCn1cc(-c2ccc(Oc3ccccc3)cc2)c2c(N)ncnc21 [Compound I-63] :: 1000 to 2500 nM
Cc1cc(-c2ncnc3[nH]c(C(=O)NCCCCN4[C@@H](c5ncccc5C)CCC[C@H]4c4ncccc4C)cc23)ccc1CNC(=O)c1cccc(C(C)C)c1 [Compound I-45] :: 1 to 100 nM
Cc1cc(-c2ncnc3[nH]c(C(=O)NCCCCN4[C@@H](c5ncccc5C)CCC[C@H]4c4ncccc4C)cc23)ccc1CNC(=O)c1ccc(C(C)(C)C)cc1 [Compound I-6] :: 1 to 100 nM
Cc1cccnc1[C@H]1CC(Cn2cc(-c3ccc(Oc4ccccc4)cc3)c3c(N)ncnc32)C[C@@H](c2ncccc2C)N1CCCCN (stereo partly drawn) [Compound I-61] :: > 2500 nM
Cc1cccnc1[C@H]1CCC[C@@H](c2ncccc2C)N1CCN1CCN(C(=O)c2ccc(-c3cc4c(-c5cccc(NC(=O)c6ccc(C(C)C)cc6)c5C)ncnc4[nH]3)cc2)CC1 [Compound I-32] :: 1 to 100 nM
Cc1cc(-c2ncnc3[nH]c(C(=O)NCCN4[C@@H](c5ncccc5C)CCC[C@H]4c4ncccc4C)cc23)ccc1CNC(=O)c1ccc(C(C)(C)C)cc1 [Compound I-3] :: 100 to 1000 nM
Cc1cccnc1[C@H]1CCC[C@@H](c2ncccc2C)N1CCNC1CN(C(=O)c2ccc(-c3cc4c(-c5cccc(NC(=O)c6cccc(C(C)C)c6)c5C)ncnc4[nH]3)cc2)C1 [Compound I-36] :: 1 to 100 nM
Cc1cccnc1[C@H]1CCC[C@@H](c2ncccc2C)N1CCCCNC(=O)OC[C@@H]1CC[C@@H](Nc2ncnc3[nH]cc(C(=O)c4ccc(Oc5ccccc5)cc4Cl)c23)CO1 [Compound I-18] :: 100 to 1000 nM
Cc1cccnc1[C@H]1CCC[C@@H](c2ncccc2C)N1CCCCN(C)C(=O)c1cc2c(-c3ccc(CNC(=O)c4ccc(C(C)(C)C)cc4)cc3)ncnc2[nH]1 [Compound I-2] :: 1 to 100 nM
Cc1cccnc1[C@H]1CCC[C@@H](c2ncccc2C)N1CCNC1CN(C(=O)c2ccc(-c3cc4c(-c5cccc(NC(=O)c6ccccc6)c5C)ncnc4[nH]3)cc2)C1 [Compound I-9] :: 1 to 100 nM
Cc1cccnc1[C@H]1CCC[C@@H](c2ncccc2C)N1CCCN1CCN(C(=O)c2ccc(-c3cc4c(-c5cccc(NC(=O)c6ccccc6)c5C)ncnc4[nH]3)cc2)CC1 [Compound I-30] :: 1 to 100 nM
COC1CN(C(=O)NCc2ccc(-c3ccnc(Nc4cnn(CCN5[C@@H](c6ncccc6C)CCC[C@H]5c5ncccc5C)c4)n3)cc2C)C1 [Compound I-41] :: 1 to 100 nM
Cc1cccnc1[C@H]1CCC[C@@H](c2ncccc2C)N1CCNC1CN(C(=O)c2ccc(-c3cc4c(-c5cccc(NC(=O)c6ccc(C(C)(C)C)cc6)c5C)ncnc4[nH]3)cc2)C1 [Compound I-8] :: 1 to 100 nM
Cc1cccnc1[C@H]1CCC[C@@H](c2ncccc2C)N1CCCNC(=O)[C@@H]1CC[C@@H](Nc2ncnc3[nH]cc(C(=O)c4ccc(Oc5ccccc5)cc4Cl)c23)CO1 [Compound I-20] :: 100 to 1000 nM
Cc1cccnc1[C@H]1CCC[C@@H](c2ncccc2C)N1CCCCNC(=O)[C@@H]1CC[C@@H](Nc2ncnc3[nH]cc(C(=O)c4ccc(Oc5ccccc5)cc4Cl)c23)CO1 [Compound I-16] :: 1 to 100 nM
Cc1cc(-c2ncnc3[nH]c(C(=O)NCCCN4[C@@H](c5ncccc5C)CCC[C@H]4c4ncccc4C)cc23)ccc1CNC(=O)c1cccc(C(C)C)c1 [Compound I-39] :: 1 to 100 nM
Cc1cccnc1[C@H]1CCC[C@@H](c2ncccc2C)N1CCN1CCN(C(=O)c2ccc(-c3cc4c(-c5cccc(NC(=O)c6cccc(C(C)C)c6)c5C)ncnc4[nH]3)cc2)CC1 [Compound I-33] :: 1 to 100 nM
Cc1cccnc1[C@H]1CCC[C@@H](c2ncccc2C)N1CCN1CCN(C(=O)c2ccc(-c3cc4c(-c5cccc(NC(=O)c6ccc(C(F)(F)F)cc6)c5C)ncnc4[nH]3)cc2)CC1 [Compound I-34] :: 1 to 100 nM
Cc1cccnc1[C@H]1CCC[C@@H](c2ncccc2C)N1CCCn1cc(-c2ccc(Oc3ccccc3)cc2)c2c(N)ncnc21 [Compound I-64] :: > 2500 nM
Cc1cccnc1[C@H]1CCC[C@@H](c2ncccc2C)N1CCCCOC(=O)[C@@H]1CC[C@@H](Nc2ncnc3[nH]cc(C(=O)c4ccc(Oc5ccccc5)cc4Cl)c23)CO1 [Compound I-14] :: > 2500 nM
Cc1cc(-c2ncnc3[nH]c(S(=O)(=O)NCCCN4[C@@H](c5ncccc5C)CCC[C@H]4c4ncccc4C)cc23)ccc1CNC(=O)c1ccc(C(C)(C)C)cc1 [Compound I-27] :: 100 to 1000 nM

----------
- test system: BTK (Bruton tyrosine kinase) (Homo sapiens, UniProt Q06187)
- Construct: GST or His (the text leaves open which); purchased Reaction Biology Europe GmbH Lot 012,11; host or cells: Sf9 insect cells or E. coli (not resolved)
- Sequence (Q06187 whole entry): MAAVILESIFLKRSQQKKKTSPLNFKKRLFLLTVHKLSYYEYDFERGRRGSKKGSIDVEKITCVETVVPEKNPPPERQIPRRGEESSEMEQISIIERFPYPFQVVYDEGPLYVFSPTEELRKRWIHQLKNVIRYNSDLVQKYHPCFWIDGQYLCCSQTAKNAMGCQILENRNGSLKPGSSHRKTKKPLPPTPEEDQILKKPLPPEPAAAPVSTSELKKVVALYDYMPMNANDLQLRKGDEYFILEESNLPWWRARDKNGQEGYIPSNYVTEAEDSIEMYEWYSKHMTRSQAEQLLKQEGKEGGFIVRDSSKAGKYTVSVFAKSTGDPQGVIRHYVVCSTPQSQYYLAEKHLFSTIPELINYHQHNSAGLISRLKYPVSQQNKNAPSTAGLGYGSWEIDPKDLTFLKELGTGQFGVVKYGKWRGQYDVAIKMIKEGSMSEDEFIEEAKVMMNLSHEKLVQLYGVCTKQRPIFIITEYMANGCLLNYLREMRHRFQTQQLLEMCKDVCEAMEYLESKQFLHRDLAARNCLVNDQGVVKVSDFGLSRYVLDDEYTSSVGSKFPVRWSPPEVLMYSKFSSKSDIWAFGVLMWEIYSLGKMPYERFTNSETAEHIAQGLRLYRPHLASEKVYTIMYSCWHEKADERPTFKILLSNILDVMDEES
- experiment description: BTK screening assay (33PanQinase Activity Assay, radiometric)
- Type: biochemical
- experimental setup: Inhibition of BTK, radiometric 33PanQinase Activity Assay, 3 μM ATP, 10 concentrations in singlicate, top 10 μM; read-out: 33PanQinase ® Radiometric IC50
pIC50: −log10 of the molar value.
result type: pIC50

Cc1cc(-c2ncnc3[nH]c(C(=O)NCCCN4[C@@H](c5ncccc5C)CCC[C@H]4c4ncccc4C)cc23)ccc1CNC(=O)c1ccccc1 :: 7.00 to 9.00
Cc1cccnc1[C@H]1CCC[C@@H](c2ncccc2C)N1CCCCOC(=O)[C@@H]1CC[C@@H](Nc2ncnc3[nH]cc(C(=O)c4ccc(Oc5ccccc5)cc4Cl)c23)CO1 :: 7.00 to 9.00
Cc1cc(-c2ccnc(Nc3cnn(CCN4[C@@H](c5ncccc5C)CCC[C@H]4c4ncccc4C)c3)n2)ccc1CNC(=O)N1CC(OC(F)(F)F)C1 :: 7.00 to 9.00

----------
Quick reference for inhibition at 1 µM among some molecules
- test system: PDGFRalpha (Homo sapiens, UniProt P16234)
- Construct: purchased Reaction Biology Europe GmbH
- Sequence (P16234 24-1089): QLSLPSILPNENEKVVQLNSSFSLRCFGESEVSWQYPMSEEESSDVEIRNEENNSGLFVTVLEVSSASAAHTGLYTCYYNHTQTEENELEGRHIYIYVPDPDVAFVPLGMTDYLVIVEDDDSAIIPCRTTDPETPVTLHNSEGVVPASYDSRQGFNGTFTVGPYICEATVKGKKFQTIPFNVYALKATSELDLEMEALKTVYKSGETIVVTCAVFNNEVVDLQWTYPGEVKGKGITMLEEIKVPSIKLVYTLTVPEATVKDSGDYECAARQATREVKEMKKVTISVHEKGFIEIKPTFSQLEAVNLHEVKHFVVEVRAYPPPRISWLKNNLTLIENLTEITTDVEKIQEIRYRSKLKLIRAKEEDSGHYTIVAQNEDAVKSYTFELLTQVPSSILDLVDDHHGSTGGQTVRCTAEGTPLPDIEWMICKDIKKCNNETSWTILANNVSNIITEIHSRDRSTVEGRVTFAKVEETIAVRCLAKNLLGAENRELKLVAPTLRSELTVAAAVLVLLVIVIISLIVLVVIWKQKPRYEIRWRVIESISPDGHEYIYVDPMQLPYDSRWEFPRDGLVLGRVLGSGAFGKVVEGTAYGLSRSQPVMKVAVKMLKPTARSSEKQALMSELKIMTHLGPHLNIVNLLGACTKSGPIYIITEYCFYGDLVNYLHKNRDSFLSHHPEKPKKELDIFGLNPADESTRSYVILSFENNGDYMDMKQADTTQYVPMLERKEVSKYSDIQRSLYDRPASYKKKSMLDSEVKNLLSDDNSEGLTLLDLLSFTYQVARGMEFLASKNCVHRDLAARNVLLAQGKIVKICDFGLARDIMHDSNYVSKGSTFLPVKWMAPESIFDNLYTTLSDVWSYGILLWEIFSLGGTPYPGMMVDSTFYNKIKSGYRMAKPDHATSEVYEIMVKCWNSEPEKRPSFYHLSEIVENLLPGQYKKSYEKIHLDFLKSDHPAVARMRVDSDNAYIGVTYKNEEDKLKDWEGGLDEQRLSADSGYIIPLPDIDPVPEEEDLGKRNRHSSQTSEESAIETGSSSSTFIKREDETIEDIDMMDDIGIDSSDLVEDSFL
- experiment description: PanQinase kinase panel: PDGFRalpha
- Type: biochemical
- experimental setup: read-out: INHIBITORY EFFECT @ 1 uM: PDGFRalpha
result type: inhibition at 1 µM

C=CC(=O)N1CCC([C@@H]2CCNc3c(C(N)=O)c(-c4ccc(Oc5ccccc5)cc4)nn32)CC1 :: < 50%
Cc1cccnc1[C@H]1CCC[C@@H](c2ncccc2C)N1CCN1CCN(C(=O)c2ccc(-c3cc4c(-c5cccc(NC(=O)c6ccccc6)c5C)ncnc4[nH]3)cc2)CC1 :: < 50%
O=C(c1ccc(Oc2ccccc2)cc1Cl)c1c[nH]c2ncnc(N[C@@H]3CC[C@@H](CO)OC3)c12 :: 70 to 89%
COc1ccc(F)cc1C(=O)NCc1ccc(-c2nn([C@@H](C)C(F)(F)F)c(N)c2C(N)=O)cc1 :: < 50%

----------
# inhibition at 1 µM listing for each entry below
- test system: TRKA (Homo sapiens, UniProt P04629)
- Construct: purchased Reaction Biology Europe GmbH
- Sequence (P04629 33-796): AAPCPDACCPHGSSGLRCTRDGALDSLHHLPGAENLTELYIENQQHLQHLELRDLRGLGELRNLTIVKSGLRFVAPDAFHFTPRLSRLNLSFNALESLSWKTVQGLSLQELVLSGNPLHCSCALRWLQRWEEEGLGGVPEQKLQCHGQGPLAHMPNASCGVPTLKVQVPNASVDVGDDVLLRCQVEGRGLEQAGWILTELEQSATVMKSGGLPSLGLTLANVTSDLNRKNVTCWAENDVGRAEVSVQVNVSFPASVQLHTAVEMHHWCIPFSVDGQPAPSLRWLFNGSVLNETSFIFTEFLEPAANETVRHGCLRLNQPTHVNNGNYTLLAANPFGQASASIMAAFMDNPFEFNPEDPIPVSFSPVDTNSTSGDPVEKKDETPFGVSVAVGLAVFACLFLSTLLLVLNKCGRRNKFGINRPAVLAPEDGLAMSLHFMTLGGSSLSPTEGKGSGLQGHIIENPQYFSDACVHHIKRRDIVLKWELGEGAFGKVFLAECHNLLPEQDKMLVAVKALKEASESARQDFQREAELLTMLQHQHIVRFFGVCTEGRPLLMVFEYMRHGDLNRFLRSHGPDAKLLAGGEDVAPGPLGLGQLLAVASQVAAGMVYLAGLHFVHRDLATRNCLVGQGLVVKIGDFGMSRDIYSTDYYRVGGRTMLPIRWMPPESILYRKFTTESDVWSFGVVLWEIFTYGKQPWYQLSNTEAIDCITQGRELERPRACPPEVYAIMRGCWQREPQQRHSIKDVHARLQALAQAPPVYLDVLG
- experiment description: PanQinase kinase panel: TRKA
- Format: biochemical
- experimental setup: read-out: INHIBITORY EFFECT @ 1 uM: TRKA
- Experimental: Screening procedures were performed in accordance with the company's on-line protocol [accessed on-line Mar. For each kinase, the median value of the cpm of three wells was defined as “low control” (n=3). This value reflects unspecific binding of radioactivity to the plate in the absence of a protein kinase but in the presence of the substrate. […]
result type: inhibition at 1 µM

COc1ccc(F)cc1C(=O)NCc1ccc(-c2nn([C@@H](C)C(F)(F)F)c(N)c2C(N)=O)cc1 [LOXO-305, pirtobrutinib] :: < 50%
C=CC(=O)N1CCC([C@@H]2CCNc3c(C(N)=O)c(-c4ccc(Oc5ccccc5)cc4)nn32)CC1 [Zanubrutinib] :: < 50%
O=C(c1ccc(Oc2ccccc2)cc1Cl)c1c[nH]c2ncnc(N[C@@H]3CC[C@@H](CO)OC3)c12 [ARQ-531] :: 90 to 100%
Cc1cccnc1[C@H]1CCC[C@@H](c2ncccc2C)N1CCN1CCN(C(=O)c2ccc(-c3cc4c(-c5cccc(NC(=O)c6ccccc6)c5C)ncnc4[nH]3)cc2)CC1 [Compound I-10] :: 70 to 89%

----------
The entries below are paired with their reported inhibition at 1 µM.
- test system: LRRK2 (Homo sapiens, UniProt Q5S007)
- Construct: purchased Reaction Biology Europe GmbH
- experiment description: PanQinase kinase panel: LRRK2
- Type: biochemical
- experimental setup: read-out: INHIBITORY EFFECT @ 1 uM: LRRK2
result type: inhibition at 1 µM

O=C(c1ccc(Oc2ccccc2)cc1Cl)c1c[nH]c2ncnc(N[C@@H]3CC[C@@H](CO)OC3)c12 :: 50 to 69%
C=CC(=O)N1CCC([C@@H]2CCNc3c(C(N)=O)c(-c4ccc(Oc5ccccc5)cc4)nn32)CC1 :: < 50%
Cc1cccnc1[C@H]1CCC[C@@H](c2ncccc2C)N1CCN1CCN(C(=O)c2ccc(-c3cc4c(-c5cccc(NC(=O)c6ccccc6)c5C)ncnc4[nH]3)cc2)CC1 :: < 50%
COc1ccc(F)cc1C(=O)NCc1ccc(-c2nn([C@@H](C)C(F)(F)F)c(N)c2C(N)=O)cc1 :: < 50%
